system: 843782-103-R-J1-PDC complex spheroid viability; assay: Anticancer human tumor 843782-103-R-J1-PDC patient-derived lung adenocarcinoma cell line growth inhibition [RAS]; settings: second compound 0.0949 µM; first compound 0.1 µM; stronger effect = lower value
parameter: viability, T/C

Request: State viability, T/C on 843782-103-R-J1-PDC complex spheroid viability. Entry: CCC(CC)c1cc(NC2CCC(N)C2)n2nccc2n1 (configuration not stated) + CCn1c(-c2cccnc2C(C)OC)c2c3cc(ccc31)N1CCOC(CC(NC(=O)C(C(C)C)N(C)C(=O)C3(F)CCN(C(=O)C#CC(C)(C)N(C)C)CC3)C(=O)N3CCCC(N3)C(=O)OCC(C)(C)C2)C1
Result: 67.4%

Request: State viability, T/C on 843782-103-R-J1-PDC complex spheroid viability. Entry: C=CC(=O)Nc1cc(Nc2nccc(-c3cn(C)c4ccccc34)n2)c(OC)cc1N(C)CCN(C)C + CCn1c(-c2cc(N3CCN(C)CC3)cnc2C(C)OC)c2c3cc(ccc31)-c1csc(n1)CC(NC(=O)C1CC1C)C(=O)N1CCCC(N1)C(=O)OCC(C)(C)C2
Result: 15.4%

###

test system: 843782-103-R-J1-PDC complex spheroid viability; experiment: Anticancer human tumor 843782-103-R-J1-PDC cell line growth inhibition [RAS]; details: compound 0.003 µM; stronger effect = lower value;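 further: viability read after seven days of compound exposure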
What viability, T/C was measured for each of the following?

Request: State viability, T/C on 843782-103-R-J1-PDC complex spheroid viability. Entry: CCn1c(-c2cc(N3CCN(C)CC3)cnc2C(C)OC)c2c3cc(ccc31)-c1csc(n1)CC(NC(=O)C1CC1C)C(=O)N1CCCC(N1)C(=O)OCC(C)(C)C2 (centres undefined)
Result: 65.7% [middle of 8 runs]

Request: State viability, T/C on 843782-103-R-J1-PDC complex spheroid viability. Entry: CCn1c(-c2cccnc2C(C)OC)c2c3cc(ccc31)N1CCOC(CC(NC(=O)C(C(C)C)N(C)C(=O)C3(F)CCN(C(=O)C#CC(C)(C)N(C)C)CC3)C(=O)N3CCCC(N3)C(=O)OCC(C)(C)C2)C1 (centres undefined)
Result: 80.1% [middle of 8 runs]

Request: State viability, T/C on 843782-103-R-J1-PDC complex spheroid viability. Entry: CC1(C)CCC(Nc2ncc(C(F)(F)F)c(-c3c[nH]c4c(P(C)(C)=O)c(C#N)ccc34)n2)CN1 (centres undefined)
Result: 93.6% [middle of 4 runs]

Request: State viability, T/C on 843782-103-R-J1-PDC complex spheroid viability. Entry: CCc1c2c(nc3ccc(O)cc13)-c1cc3c(c(=O)n1C2)COC(=O)[C@]3(O)CC
Result: 26% [middle of 4 runs]

###

What viability, T/C was measured for each of the following?
tested on: 843782-103-R-J1-PDC complex spheroid viability; assay: Anticancer human tumor 843782-103-R-J1-PDC cell line growth inhibition [RAS]; conditions: second compound 0.03 µM; first compound 1 µM; stronger effect = lower value;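 further: viability read after seven days of compound exposure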
Report only the number, with the unit % understood.

Request: Please indicate viability, T/C recorded for C[C@@H](NC(=O)c1ncnc(N)c1Cl)c1ncc(C(=O)Nc2cc(C(F)(F)F)c(Cl)cn2)s1 + CCn1c(-c2cc(N3CCN(C)CC3)cnc2C(C)OC)c2c3cc(ccc31)-c1csc(n1)CC(NC(=O)C1CC1C)C(=O)N1CCCC(N1)C(=O)OCC(C)(C)C2
Result: 32.5

Request: Please indicate viability, T/C recorded for CCN1CCN(Cc2ccc(Nc3ncc(F)c(-c4cc(F)c5nc(C)n(C(C)C)c5c4)n3)nc2)CC1 + CCn1c(-c2cccnc2C(C)OC)c2c3cc(ccc31)N1CCOC(CC(NC(=O)C(C(C)C)N(C)C(=O)C3(F)CCN(C(=O)C#CC(C)(C)N(C)C)CC3)C(=O)N3CCCC(N3)C(=O)OCC(C)(C)C2)C1
Result: 35.6

Request: Please indicate viability, T/C recorded for CCC(CC)c1cc(NC2CCC(N)C2)n2nccc2n1 (centres undefined) + CCn1c(-c2cccnc2C(C)OC)c2c3cc(ccc31)N1CCOC(CC(NC(=O)C(C(C)C)N(C)C(=O)C3(F)CCN(C(=O)C#CC(C)(C)N(C)C)CC3)C(=O)N3CCCC(N3)C(=O)OCC(C)(C)C2)C1
Result: 53.5

Request: Please indicate viability, T/C recorded for CC(=O)OC12COC1CC(O)C1(C)C(=O)C(O)C3=C(C)C(OC(=O)C(O)C(NC(=O)OC(C)(C)C)c4ccccc4)CC(O)(C(OC(=O)c4ccccc4)C21)C3(C)C (centres undefined) + CCn1c(-c2cccnc2C(C)OC)c2c3cc(ccc31)N1CCOC(CC(NC(=O)C(C(C)C)N(C)C(=O)C3(F)CCN(C(=O)C#CC(C)(C)N(C)C)CC3)C(=O)N3CCCC(N3)C(=O)OCC(C)(C)C2)C1
Result: 8.38
